These measurements were taken from paper PMC6789782.

Parameter: ED rate. Scope: all listed entries.
Test system: rat hippocampal slices
Test: Electrophysiological assay of hippocampal slices, epileptiform discharge (ED) recording
Settings: 10 µM compound, co-exposure with 50 μM 4-AP; ± SEM
Provide only the numeric value, understood in Hz.

Q: Field request: ED rate | item: COc1cc(/C=C/C(=O)O)ccc1O
Result: 0.41

Q: // query: COc1cc(/C=C/C(=O)O[C@H]2C[C@@](O)(C(=O)O)C[C@H](O)[C@@H]2O)ccc1O
Result: 0.46

Q: Field entry: O=C(O)/C=C/c1ccc(O)c(O)c1
Result: 0.55

Q: Note, next up: O=C(/C=C/c1ccc(O)c(O)c1)O[C@H]1C[C@@](O)(C(=O)O)C[C@H](O)[C@@H]1O
Result: 0.38

* * *

System: isolated perfused guinea pig heart
Assay: Langendorff perfused heart assay
Conditions: laboratory background data of drugs; n = 3
In this section we review reported Lowest concentration indicating statistically significant % change to solvent control, QRS values for a set of compounds.
Provide the measurement as a number trailed by its unit.

compound | observed-result
COc1c(N2C[C@@H]3CCCN[C@@H]3C2)c(F)cc2c(=O)c(C(=O)O)cn(C3CC3)c12 | 10 µM
Cc1nccn1CC1CCc2c(c3ccccc3n2C)C1=O (stereo not shown) | 10 µM
C=C[C@H]1C[N@@]2CC[C@H]1C[C@H]2[C@H](O)c1ccnc2ccc(OC)cc12 | 3 µM

Note: attention shifts to another entry.
Q: What measured Lowest concentration indicating statistically significant % change to solvent control, QRS is associated with O=C(O[C@@H]1C[C@@H]2C[C@H]3C[C@H](C1)N2CC3=O)c1c[nH]c2ccccc12 on isolated perfused guinea pig heart?
Result: 3 µM

* * *

Tested on: isolated perfused guinea pig heart
Experiment: Langendorff perfused heart assay
Conditions: laboratory background data of drugs; n = 3
Entries and their Lowest concentration indicating statistically significant % change to solvent control, QT
Please respond with the number in µM and leave the unit unwritten.

Completed entries (count: 3):
compound | observed-result
COc1c(N2C[C@@H]3CCCN[C@@H]3C2)c(F)cc2c(=O)c(C(=O)O)cn(C3CC3)c12 [Moxifloxacin] | 3
C=C[C@H]1C[N@@]2CC[C@H]1C[C@H]2[C@H](O)c1ccnc2ccc(OC)cc12 [Quinine] | 1
CN(CCOc1ccc(NS(C)(=O)=O)cc1)CCc1ccc(NS(C)(=O)=O)cc1 [Dofetilide] | 0.001

--- query ---
Q: Query (compound): Cc1nccn1CC1CCc2c(c3ccccc3n2C)C1=O (stereo not shown) [Ondansetron] ; field requested: Lowest concentration indicating statistically significant % change to solvent control, QT
Result: 1

* * *

Tested on: Calcium Channel L-Type, Benzothiazepine
Assay: In vitro profiling, binding assay
Design: species or system rat
Settings: 30 µM
readout: % Inhibition (%)
The response must be a number in % with no trailing unit.

molecule-smiles | % Inhibition, %
COc1cc(/C=C/C(=O)O[C@H]2C[C@@](O)(C(=O)O)C[C@H](O)[C@@H]2O)ccc1O | 6
O=C(O)/C=C/c1ccc(O)c(O)c1 | −3
O=C(/C=C/c1ccc(O)c(O)c1)O[C@H]1C[C@@](O)(C(=O)O)C[C@H](O)[C@@H]1O | −3

Below: the item to evaluate.
Q: % Inhibition lookup needed for COc1cc(/C=C/C(=O)O)ccc1O , thanks.
Result: 6
